# Tested on: NCI-H460 lung
# PROTOCOL_SUMMARY: NCI tumour cell line growth inhibition, 48 h
RECORDED_METRIC: TGI

Qu. Notebook entry, NCI-H460 lung assay: TGI of COc1ccc(S(=O)(=O)n2c3c(c4ccccc42)[C@@H]2[C@@H](CCCN2C(=O)CS(=O)c2ccc(C)cc2)[C@H](Cl)C3)cc1 (stereo not given in full) = ?
Ans. > 100 µM

Qu. Next up: CCOC(=O)C12OC(OCC)(CC1(OCC)OCC)C1(CC1)C2=O (stereo not given)
Ans. > 100 µM

Qu. Next up: Cc1cc2c(cc1C)[n+](=O)c(C(=O)c1ccccc1)c(C(F)F)n2[O-]
Ans. > 100 µM

Qu. Next up: COCCOCOC(CCCCO)c1cc(C)c(O[Si](C)(C)C(C)(C)C)c(C)c1 (stereo not given)
Ans. 20.2 µM

New cases:
Qu. Notebook entry, NCI-H460 lung assay: TGI of O=S1C(=c2ccc(=C3Sc4ccccc4S3)cc2)Sc2ccccc21 (stereo not given) = ?
Ans. > 54.8 µM

Qu. Next up: Cc1nc(-c2nc(C)c(C(=O)NNC(=O)C[n+]3ccccc3)s2)sc1C(=O)NNC(=O)C[n+]1ccccc1
Ans. > 100 µM

Qu. Next up: O=C(C(=O)n1ccc2ccccc21)n1ccc2ccccc21
Ans. > 100 µM

Qu. Next up: CCOc1ccc(NC2=CC(=O)C(=O)c3ccccc32)cc1
Ans. 6.97 µM

Qu. Next up: O=C1NC(=NCc2ccccc2)S/C1=C\c1ccc2ncccc2c1
Ans. > 25 µM

Qu. Next up: C[C@@]1(O)CC[C@]2(C)C3CCCC3[C@H]12 (stereo not given in full)
Ans. > 100 µM

====

# System: HOP-18 NSCLC
# PROTOCOL_SUMMARY: NCI tumour cell line growth inhibition, 48 h
The following molecules are listed with their measured TGI values.
Give just the numeric value; µM need not be written.

Would you please look over these solved cases?
Qu. Using the record for COCCOCOC(CCCCO)c1cc(C)c(O[Si](C)(C)C(C)(C)C)c(C)c1 (centres undefined) , report its TGI.
Ans. 30.8

Qu. Next up: Cc1[cH-]c(=O)n(-c2ccccc2)n1.[Au+].[Au].c1ccc([PH+](c2ccccc2)c2ccccc2)cc1.c1ccc([PH+](c2ccccc2)c2ccccc2)cc1
Ans. 27

Next molecule, TGI to be filled in.
Qu. Using the record for O=C(Nc1nc(=S)[nH][nH]1)C(=O)C(C(=O)c1ccc2ccccc2c1)C1OC(=O)c2ccccc21 (centres undefined) , report its TGI.
Ans. 40.2

====

# System: SK-MEL-2 melanoma
# PROTOCOL_SUMMARY: NCI tumour cell line growth inhibition, 48 h
The following molecules are listed with their measured TGI values.
Give just the numeric value; µM need not be written.

Would you please look over these solved cases?
Qu. Using the record for COc1cc2c(cc1O)[C@H](C)C(c1ccc(OC)c(OC)c1)O2 (stereo not given in full) , report its TGI.
Ans. 12.8

Qu. Next up: COC(=O)/C=C/c1cc(OC(C)=O)c2c(c1)[C@@H](C(=O)OC)[C@H](c1ccc(OC(C)=O)c(OC(C)=O)c1)O2
Ans. 70

Qu. Next up: COc1cc(-c2nc3sccn3c2-c2ccnc(NCCNS(=O)(=O)c3ccc(F)cc3)n2)ccc1F
Ans. 7.27

New cases:
Qu. Using the record for COc1ccc(NC(=S)c2ccc(CN3CCCCC3)s2)cc1 , report its TGI.
Ans. 36.9
